assayed_system: GCN2 (Homo sapiens)
Sequence (Q9P2K8 whole entry): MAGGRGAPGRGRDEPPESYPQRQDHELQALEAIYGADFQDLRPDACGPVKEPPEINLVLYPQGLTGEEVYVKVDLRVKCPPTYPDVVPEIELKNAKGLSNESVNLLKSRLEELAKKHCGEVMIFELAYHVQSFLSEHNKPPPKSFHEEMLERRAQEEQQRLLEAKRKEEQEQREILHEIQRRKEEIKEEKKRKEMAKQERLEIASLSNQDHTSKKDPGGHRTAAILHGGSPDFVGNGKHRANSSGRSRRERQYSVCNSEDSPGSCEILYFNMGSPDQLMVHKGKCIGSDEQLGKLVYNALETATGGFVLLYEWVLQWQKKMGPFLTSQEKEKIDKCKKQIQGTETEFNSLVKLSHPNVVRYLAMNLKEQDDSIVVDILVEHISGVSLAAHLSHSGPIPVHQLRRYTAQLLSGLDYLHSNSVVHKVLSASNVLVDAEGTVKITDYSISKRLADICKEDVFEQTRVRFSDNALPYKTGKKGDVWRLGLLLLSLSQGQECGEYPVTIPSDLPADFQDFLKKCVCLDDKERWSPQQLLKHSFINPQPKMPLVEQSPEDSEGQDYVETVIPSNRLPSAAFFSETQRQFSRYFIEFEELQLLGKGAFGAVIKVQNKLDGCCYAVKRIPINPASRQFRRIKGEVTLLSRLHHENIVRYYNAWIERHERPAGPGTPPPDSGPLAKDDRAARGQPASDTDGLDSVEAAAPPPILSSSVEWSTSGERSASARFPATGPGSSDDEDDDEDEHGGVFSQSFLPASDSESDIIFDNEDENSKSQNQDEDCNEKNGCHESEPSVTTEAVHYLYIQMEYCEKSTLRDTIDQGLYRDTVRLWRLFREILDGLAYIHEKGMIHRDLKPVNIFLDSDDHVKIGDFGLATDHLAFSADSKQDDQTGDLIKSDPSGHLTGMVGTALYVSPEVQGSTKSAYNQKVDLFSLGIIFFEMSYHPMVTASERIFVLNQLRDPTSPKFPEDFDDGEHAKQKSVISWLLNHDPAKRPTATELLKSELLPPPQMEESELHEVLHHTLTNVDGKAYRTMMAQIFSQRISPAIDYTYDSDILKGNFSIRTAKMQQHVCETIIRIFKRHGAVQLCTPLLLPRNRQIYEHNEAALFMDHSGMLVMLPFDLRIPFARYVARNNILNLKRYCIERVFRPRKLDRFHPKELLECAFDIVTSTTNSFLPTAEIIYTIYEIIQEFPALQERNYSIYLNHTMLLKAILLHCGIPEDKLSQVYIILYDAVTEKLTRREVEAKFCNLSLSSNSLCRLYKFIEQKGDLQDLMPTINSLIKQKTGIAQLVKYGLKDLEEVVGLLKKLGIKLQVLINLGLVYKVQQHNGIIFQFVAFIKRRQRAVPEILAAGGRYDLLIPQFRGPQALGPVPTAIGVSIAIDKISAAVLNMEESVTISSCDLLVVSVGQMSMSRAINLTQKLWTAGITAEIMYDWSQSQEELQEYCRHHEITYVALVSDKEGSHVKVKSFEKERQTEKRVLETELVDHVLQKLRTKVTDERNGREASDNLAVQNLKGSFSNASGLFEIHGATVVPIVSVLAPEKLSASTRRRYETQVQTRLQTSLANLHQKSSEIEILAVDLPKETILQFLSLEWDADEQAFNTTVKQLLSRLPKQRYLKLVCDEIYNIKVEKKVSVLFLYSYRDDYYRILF
protocol: GCN2 enzymatic endpoint assay: phosphorylation of GFP-eIF2α measured by TR-FRET (Lanthascreen)
Assay type: biochemical
experimental_context: tested as described in Example 77; compound and/or hydrochloride, dihydrochloride or trifluoroacetic acid salt; read-out: IC 50 Activity
pIC50: −log10 of the molar value.
attribute_measured: pIC50

                                   compound  value_measured
0  CNC(=O)[C@]1(C)CC[C@@H](Nc2ncc3c(Br)nn(-c4cc(CCN5CCOCC5)c5ncccc5c4)c3n2)C1    6.70 to 7.60

Name the recorded pIC50 for O=C([C@@H]1CC[C@@H](Nc2ncc3c(Br)nn(-c4ccc5ncccc5c4)c3n2)C1)N1CCN[C@@H](CCO)C1 .
6.70 to 7.60

Name the recorded pIC50 for CNC(=O)[C@@]1([C@H](C)C#N)CC[C@@H](Nc2ncc3c(Br)nn(-c4ccc(-c5nnc(C)s5)cc4)c3n2)C1 .
6.70 to 7.60

Name the recorded pIC50 for CNC(=O)[C@]1(C)CC[C@@H](Nc2ncc3c(Br)nn(-c4ccc5nc[nH]c(=O)c5c4)c3n2)C1 .
6.70 to 7.60

Name the recorded pIC50 for CNC(=O)[C@]1(C)CC[C@@H](Nc2ncc3c(Br)nn(-c4cc(CCNC(=O)/C=C/CN(C)C)c5ncccc5c4)c3n2)C1 .
6.70 to 7.60

Name the recorded pIC50 for C[C@H](N)c1cc(Cl)cc(-n2nc(Br)c3cnc(N[C@@H]4CC[C@@](C)(C(=O)N5CCNCC5)C4)nc32)c1 .
6.70 to 7.60

Name the recorded pIC50 for Cc1nnc(-c2ccc(-n3nc(Br)c4cnc(NC5CC(P(C)(C)=O)C5)nc43)cc2CCS(C)(=O)=O)s1 (stereo not shown) .
6.70 to 7.60

---

assayed_system: GCN2 (Homo sapiens)
protocol: GCN2 enzymatic endpoint assay: phosphorylation of GFP-eIF2α measured by TR-FRET (Lanthascreen)
Type: biochemical
experimental_context: tested as described in Example 77; compound and/or hydrochloride, dihydrochloride or trifluoroacetic acid salt; read-out: IC 50 Activity
pIC50: −log10 of the molar value.
attribute_measured: pIC50

                                   compound  attribute_measured  value_measured
0  CNC(=O)[C@]1(C)CCC(Nc2ncc3c(Br)nn(-c4cnc(-c5nnc(C)s5)c(Cl)c4)c3n2)C1 (stereo partly shown)               pIC50    6.70 to 7.60
1  CNC(=O)[C@@]1(C)CC[C@@H](Nc2ncc3c(Br)nn(-c4cc(C#N)c5ncccc5c4)c3n2)C1               pIC50    6.70 to 7.60
2  COCCNC(=O)[C@@H]1CC[C@@H](Nc2ncc3c(Br)nn(-c4ccc5nc(C)cc(Cl)c5c4)c3n2)C1               pIC50    6.30 to 6.70

Turning to the following compound.
Name the recorded pIC50 for CNC(=O)[C@]1(C)CC[C@@H](Nc2ncc3c(Br)nn(-c4ccc(C(=O)c5ccno5)cc4)c3n2)C1 .
6.70 to 7.60

---

assayed_system: GCN2 (Homo sapiens)
protocol: GCN2 enzymatic endpoint assay: phosphorylation of GFP-eIF2α measured by TR-FRET (Lanthascreen)
Format: biochemical
experimental_context: GCN2 biochemical IC50; 4 nM GCN2, 2 μM ATP, 80 nM GFP-eIF2α, 90 min RT; read-out: GCN2 activity
Recorded IC50 for the following molecules

                                   molecule  attribute_measured  value_measured
0  CNC(=O)[C@]1(C)CC[C@@H](Nc2ncc3c(Br)nn(-c4ccc5ncc(C(C)(C)O)cc5c4)c3n2)C1                IC50    25 to 200 nM
1  CNC(=O)[C@]1(C)CC[C@@H](Nc2ncc3c(Br)nn(-c4ccc(-c5nnc(C)s5)cc4)c3n2)C1                IC50         < 25 nM

Name the recorded IC50 for CNC(=O)C1(C)CC[C@@H](Nc2ncc3c(Br)nn(-c4ccc(-c5cccnc5)c(C#N)c4)c3n2)C1 (some centres unmarked) .
25 to 200 nM

Name the recorded IC50 for CNC(=O)[C@]1(C)CC[C@@H](Nc2ncc3c(Br)nn(-c4ccc(-c5nnc(C)s5)c(CCN(C)C)c4)c3n2)C1 .
25 to 200 nM

Name the recorded IC50 for CNC(=O)[C@]1(C)CC[C@@H](Nc2ncc3c(Br)nn(-c4ccc5ncccc5c4)c3n2)C1 (single isomer, unassigned) .
25 to 200 nM

Name the recorded IC50 for COCCNC(=O)[C@H]1C[C@H](Nc2ncc3c(Br)nn(-c4ccc5ncccc5c4)c3n2)C1 .
25 to 200 nM

Name the recorded IC50 for CNC(=O)[C@]1(C)CC[C@@H](Nc2ncc3c(Br)nn(-c4cc(Cl)cc([C@H](C)N)c4)c3n2)C1 .
< 25 nM

Name the recorded IC50 for COCc1noc([C@@H]2CC[C@@H](Nc3ncc4c(Br)nn(-c5ccc6ncccc6c5)c4n3)C2)n1 .
500 to 1000 nM

Name the recorded IC50 for COCCNC(=O)[C@@H]1CC[C@@H](Nc2ncc3c(Br)nn(-c4ccc5cnccc5c4)c3n2)C1 .
25 to 200 nM

Name the recorded IC50 for Cc1nnc(-c2ccc(-n3nc(Br)c4cnc(N[C@@H]5CC[C@@](C)(O)C5)nc43)cc2C#N)s1 .
< 25 nM

Name the recorded IC50 for CNC(=O)[C@]1(C)CC[C@@H](Nc2ncc3c(Br)nn(-c4ccc(-c5nnc(C)o5)c(CO)c4)c3n2)C1 .
25 to 200 nM

Name the recorded IC50 for CNC(=O)[C@]1(C)CC[C@@H](Nc2ncc3c(I)nn(-c4cc(F)c5ncccc5c4)c3n2)C1 .
< 25 nM

Name the recorded IC50 for CN1CCN(C(=O)[C@@H]2CC[C@@H](Nc3ncc4c(Br)nn(-c5ccc(N6CCOCC6)c(C#N)c5)c4n3)C2)CC1=O .
200 to 500 nM

Name the recorded IC50 for COCCNC(=O)[C@@H]1CC[C@@H](Nc2ncc3c(I)nn(-c4ccc5ncccc5c4)c3n2)C1 .
< 25 nM

Origin of values: patent US11046699B2
